# Test system: OVCAR-4
# Assay explanation: Growth inhibition of human OVCAR4 cells at 10 uM after 48 hrs by SRB assay relative to control
# Format: functional
# Experimental parameters: OVCAR-4, 48 h, read-out: GI
Binary classification by inhibition of growth at 10 µM, with 30% as an inclusive lower bound for Fulfilled; all other cases are Not fulfilled.

Past entries and their recorded results:
INSERT INTO results (chemical_string, cat) VALUES
  ('COc1cc(NC(=O)c2cccc(-c3cc(=O)c4c(OC)c(OC)c(OC)cc4o3)c2)cc(OC)c1OC', 'Not fulfilled'),
  ('COc1ccccc1NC(=O)c1cccc(-c2cc(=O)c3c(O)c(OC)c(OC)cc3o2)c1', 'Not fulfilled'),
  ('COc1cc2oc(-c3cccc(C(=O)Nc4ccccc4)c3)cc(=O)c2c(OC)c1OC', 'Not fulfilled');

Note: attention shifts to another entry.
Input line: inhibition of growth at 10 µM >= 30% for COc1cccc(C(=O)Nc2cccc(-c3cc(=O)c4c(O)c(OC)c(OC)cc4o3)c2)c1 ?
Output line: Fulfilled

Origin of values: ChEMBL document CHEMBL4325889
